Listed compounds paired with reported growth inhibition
experiment: NCI Yeast Anticancer Drug Screen. Data for the mlh1 rad18 strain (AID 175); details: S. cerevisiae mlh1 rad18 strain growth inhibition; at 50.0 µM; stronger effect = higher value
The panel holds about 79,000 compounds, 15% with a hit somewhere; the sample as a whole holds those more often.
API: value field is a number in %; no unit string.

Sample records with growth inhibition:
Compound: CC(N)(CCSCP(=O)(O)O)C(=O)O (centres undefined)
Endpoint Name: growth inhibition
Readout Number: -27.4

Compound: CNC(=O)CCCCC(=O)NC
Endpoint Name: growth inhibition
Readout Number: -19.2

Compound: CCOC(=O)c1c(Nc2ccc(OC)cc2)n[nH]c1C
Endpoint Name: growth inhibition
Readout Number: -8.65

Compound: COc1cc(N=Nc2ccccc2)cc(/C=N\NC(=S)Nc2cccc(C)c2)c1O
Endpoint Name: growth inhibition
Readout Number: 39.7

Compound: CC(C)(C)NNC(=O)/C(=C/c1ccc([N+](=O)[O-])cc1)NC(=O)c1ccccc1
Endpoint Name: growth inhibition
Readout Number: -15.7

Prompt: Entry `CC(=O)Nc1ccc(N)cc1N` : reported growth inhibition = ?
Completion: 13.8

Prompt: I'd like to know its growth inhibition. The compound in question is CC(=O)Nc1ccc(C(C#N)C(C#N)c2ccccc2)cc1 (centres undefined)
Completion: -2.55

Prompt: Query: growth inhibition; subject: `CC1=C(C(=O)Nc2c(C)cccc2C)C(c2ccccc2Cl)C(C(=O)Nc2c(C)cccc2C)=C(C)N1`
Completion: -11.7

Prompt: Requested field: growth inhibition. Item: O=C1NC=NC1c1ccccc1 (centres undefined)
Completion: -11.5

Prompt: Item under review: Cc1ccccc1[B-]12OCC[N+]1(CNC(=O)c1ccccc1O)CCO2 (centres undefined) . Reported growth inhibition?
Completion: 8.5

Prompt: What does the record list as growth inhibition for COc1cc(O)c2c(c1)C(=O)C1=C(C2=O)C(O)C[C@@](C)(O)C1 (some centres undefined) ?
Completion: 90

Prompt: Can you look up the measured growth inhibition of `CCOC(=O)c1ccc[n+]([O-])c1` for me?
Completion: -10.8

Prompt: Form field: reported growth inhibition of `COc1ccc2c(c1)NC(C(C)C)=NS2(=O)=O`
Completion: 25.8

Prompt: Query: growth inhibition; subject: `COc1ccc(-c2cc(=O)c3ccc(O)cc3o2)c(OC)c1OC`
Completion: -1.75

Prompt: Can you share its growth inhibition? I mean this compound: `Cc1nn(C23CC4CC(CC(C4)C2)C3)c(C(Cl)Cl)c1Cl`
Completion: 4.7
